Tested on: mice
Assay: Neuropharmacological Assay (SmartCube): automated behavioral signature of compound-treated mice compared with a database of reference drug classes
Type: in vivo
Conditions: probability that activity matches this class of agents, 3.0 mg/kg i.p., 15 min before test
Structures can show the parent of a compound that is named as a salt.
reported_endpoint: AP

CNC1COc2ccsc2C1 (single isomer, unassigned) [Compound 46, hydrochloride] | ND (^ <4%)
Cl.c1scc2c1CCC(NC1CC1)C2 (single isomer, unassigned) [Compound 124] | ND (^ <4%)
CN(C)C1(C)CCc2ccsc2C1 (single isomer, unassigned) [Compound 119, hydrochloride] | ND (^ <4%)
CNC1CCc2csc(C3CC3)c2C1 (stereo not shown) [Compound 95, hydrochloride] | ++ (≥24%)
CNC1COc2csc(Cl)c2C1 (stereo not shown) [Compound 87, hydrochloride] | +++ (≥49%)
CNC1CCc2c(sc(C)c2C)C1 (single isomer, unassigned) [Compound 42, hydrochloride] | ND (^ <4%)
CNC1CCc2c(sc(C(F)(F)F)c2C)C1 (stereo not shown) [Compound 91, hydrochloride] | ND (^ <4%)
CNC1(C)CCc2cscc2C1 (single isomer, unassigned; enantiomer 2) [Compound 102] | ND (^ <4%)
CNC1CCc2c(F)sc(F)c2C1 (single isomer, unassigned) [Compound 77, hydrochloride] | ++ (≥24%)
CNC1CCc2scc(Br)c2C1 (stereo not shown) [Compound 108, hydrochloride] | ++++ (≥74%)

Prompt: Bench note: what AP did CNC1CCc2c(sc(C)c2C)C1 (single isomer, unassigned) [Compound 43, hydrochloride] show?
Completion: ND (^ <4%)

Prompt: What do we get for CNC1CCc2csc(Cl)c2C1 (single isomer, unassigned) [Compound 55, hydrochloride] ?
Completion: ++ (≥24%)

###

System: mice
Assay: Neuropharmacological Assay (SmartCube): automated behavioral signature of compound-treated mice compared with a database of reference drug classes
Format: in vivo
Conditions: SmartCube class probability, 3.0 mg/kg i.p., 15 min before test
Counter-ions that a name gives are not always drawn.
reported_endpoint: SH

Below are worked cases with known answers.
CNC1CCc2c(F)sc(C)c2C1 (single isomer, unassigned) [Compound 211, hydrochloride] | ND (^ <4%)
CNC1COc2csc(C(F)(F)F)c2C1 (single isomer, unassigned) [Compound 258, hydrochloride] | ND (^ <4%)
CNC1COc2cc(C)sc2C1 (centres unmarked) [Compound 181, hydrochloride] | ND (^ <4%)
Cc1scc2c1CC(N)CC2 (single isomer, unassigned) [Compound 163, hydrochloride] | ND (^ <4%)
CN(C)C1CCc2cscc2C1.Cl (single isomer, unassigned) [Compound 157] | ND (^ <4%)
CNC1(C)COc2ccsc2C1 (centres unmarked) [Compound 266, formate salt] | ND (^ <4%)
NC1CCc2c(F)csc2C1 (centres unmarked) [Compound 209, hydrochloride] | ND (^ <4%)
CNC1CCc2sc(-c3ccccc3)cc2C1.Cl (single isomer, unassigned) [Compound 257] | ND (^ <4%)
CNC1CCc2scc(C3CC3)c2C1 (single isomer, unassigned) [Compound 249, hydrochloride] | ND (^ <4%)
CNC1(C)CCc2csc(C(F)(F)F)c2C1 (centres unmarked) [Compound 141, hydrochloride] | ND (^ <4%)

Prompt: Bench note: what SH did CNC1CCCc2cscc2C1 (single isomer, unassigned) [Compound 169, hydrochloride] show?
Completion: ND (^ <4%)

Prompt: What do we get for CNC1CCc2sc(F)c(C)c2C1 (centres unmarked) [Compound 142, hydrochloride] ?
Completion: ND (^ <4%)

Prompt: What do we get for CNC1CCc2scc(C(F)(F)F)c2C1.Cl (single isomer, unassigned) [Compound 195] ?
Completion: ND (^ <4%)

###

Tested on: mice
Assay: Neuropharmacological Assay (SmartCube): automated behavioral signature of compound-treated mice compared with a database of reference drug classes
Assay type: in vivo
Conditions: probability that activity matches this class of agents, 3.0 mg/kg i.p., 15 min before test, hydrochloride, 3 mg/kg
Counter-ions that a name gives are not always drawn.
reported_endpoint: AP

CNC1CCc2csc(F)c2C1 (single isomer, unassigned) [Compound 74, hydrochloride] | ++++ (≥74%)
CCc1scc2c1CC(NC)CC2 (single isomer, unassigned) [Compound 115, hydrochloride] | ++++ (≥74%)

###

Tested on: mice
Assay: Neuropharmacological Assay (SmartCube): automated behavioral signature of compound-treated mice compared with a database of reference drug classes
Assay type: in vivo
Conditions: probability that activity matches this class of agents, 3.0 mg/kg i.p., 15 min before test, hydrochloride, 3 mg/kg
Where a name gives a salt, the structure may show the parent alone.
reported_endpoint: AP

Below are worked cases with known answers.
Cc1csc2c1CCC(N)C2 (single isomer, unassigned) [Compound 65, hydrochloride] | ND (^ <4%)
CNC1CCc2c(C)sc(C)c2C1 (single isomer, unassigned) [Compound 31, hydrochloride] | +++ (≥49%)
CNC1CCc2c(csc2F)C1 (single isomer, unassigned) [Compound 75, hydrochloride] | ++++ (≥74%)
CNC1CCc2cscc2C1.Cl (single isomer, unassigned) [Compound 13] | +++ (≥49%)
CNC1CCc2c(C)csc2C1 (single isomer, unassigned) [Compound 44, hydrochloride] | +++ (≥49%)

Prompt: State its AP on mice: CNC1CCc2c(csc2C)C1 (single isomer, unassigned) [Compound 32, hydrochloride]
Completion: + (≥4%)

Prompt: What do we get for CNC1CCc2scc(C)c2C1.Cl (single isomer, unassigned) [Compound 70] ?
Completion: +++ (≥49%)

Prompt: What do we get for CNC1CCc2csc(C#N)c2C1 (single isomer, unassigned) [Compound 133, hydrochloride] ?
Completion: + (≥4%)

Prompt: What do we get for CCc1scc2c1CCC(NC)C2 (single isomer, unassigned) [Compound 114, hydrochloride] ?
Completion: + (≥4%)

Prompt: What do we get for CNC1COc2cscc2C1 (single isomer, unassigned) [Compound 52, hydrochloride] ?
Completion: +++ (≥49%)

###

System: mice
Assay: Neuropharmacological Assay (SmartCube): automated behavioral signature of compound-treated mice compared with a database of reference drug classes
Format: in vivo
Conditions: probability that activity matches this class of agents, 3.0 mg/kg i.p., 15 min before test
Structures can show the parent of a compound that is named as a salt.
reported_endpoint: AP

CNC1CCc2csc(Cl)c2C1 (single isomer, unassigned) [Compound 56, hydrochloride] | ++ (≥24%)
CNC1Cc2cscc2C1.Cl | ND (^ <4%)
NC1CCc2csc(Cl)c2C1 (stereo not shown) [Compound 89, hydrochloride] | ND (^ <4%)
CNC1CCc2cc(F)sc2C1 (racemic) [Compound 79, hydrochloride] | + (≥4%)
Cc1sc2c(c1C)CCC(N)C2 (single isomer, unassigned) [Compound 68, hydrochloride] | ND (^ <4%)

Prompt: State its AP on mice: Cc1sc2c(c1C)CCC(N)C2 (single isomer, unassigned) [Compound 67, hydrochloride]
Completion: ND (^ <4%)

Prompt: What do we get for CNC1COc2ccsc2C1 (single isomer, unassigned) [Compound 47, hydrochloride] ?
Completion: ND (^ <4%)

Prompt: What do we get for CCc1sc(CC)c2c1CCC(NC)C2 (single isomer, unassigned) [Compound 117, hydrochloride] ?
Completion: ND (^ <4%)

Prompt: What do we get for Cc1cc2c(s1)CC(N(C)C)CC2.Cl (single isomer, unassigned) ?
Completion: ND (^ <4%)

Prompt: What do we get for CNC1CCc2c(C(F)(F)F)sc(C)c2C1 (single isomer, unassigned; enantiomer 2) [Compound 107] ?
Completion: ND (^ <4%)

Prompt: What do we get for CC1(N)CCc2cscc2C1.Cl (single isomer, unassigned) [Compound 123] ?
Completion: ND (^ <4%)

###

Tested on: mice
Experiment: Neuropharmacological Assay (SmartCube): automated behavioral signature of compound-treated mice compared with a database of reference drug classes
Type: in vivo
Settings: SmartCube class probability, 3.0 mg/kg i.p., 15 min before test
Where a name gives a salt, the structure may show the parent alone.
reported_endpoint: SH

Cc1scc2c1CC(N)CC2 (single isomer, unassigned) [Compound 162, hydrochloride] | ND (^ <4%)
CC1(N2CCCC2)CCc2ccsc2C1 (single isomer, unassigned) [Compound 275] | ND (^ <4%)
Cc1cc2c(s1)CC(N)CO2 (stereo not shown) [Compound 188, hydrochloride] | ND (^ <4%)

###

System: mice
Assay: Neuropharmacological Assay (SmartCube): automated behavioral signature of compound-treated mice compared with a database of reference drug classes
Assay type: in vivo
Conditions: probability that activity matches this class of agents, 3.0 mg/kg i.p., 15 min before test, hydrochloride, 3 mg/kg
Description: Neurosci. 2011 Sep. 9; 5: 103 (doi: 10.3389/fnins.2011.00103) (“Roberds”). […] To facilitate testing of multiple compounds for behavioral effects relevant to psychiatric disease, PsychoGenics, Inc. (Tarrytown, NY, “PGI”) developed SmartCube™ an automated system in which behaviors of compound-treated mice are captured by digital video and analyzed with computer algorithms. […]
Where a name gives a salt, the structure may show the parent alone.
reported_endpoint: AP

Below are worked cases with known answers.
CNC1CCc2cc(F)sc2C1 (single isomer, unassigned) [Compound 81, hydrochloride] | ++++ (≥74%)
CNC1CCc2c(csc2Cl)C1 (single isomer, unassigned) [Compound 58, hydrochloride] | +++ (≥49%)
CNC1CCc2cc(C)sc2C1 (single isomer, unassigned) [Compound 29, hydrochloride] | +++ (≥49%)
CNC1CCc2sccc2C1.Cl (single isomer, unassigned) [Compound 11] | ++++ (≥74%)

Prompt: Bench note: what AP did Cl.c1cc2c(s1)CC(N1CCCC1)CC2 (single isomer, unassigned) [Compound 18] show?
Completion: + (≥4%)

Prompt: What do we get for CNC1CCc2c(C)csc2C1 (single isomer, unassigned) [Compound 45, hydrochloride] ?
Completion: + (≥4%)

Prompt: What do we get for CNC1CCc2scc(Cl)c2C1 (single isomer, unassigned) [Compound 132, hydrochloride] ?
Completion: + (≥4%)

Prompt: What do we get for CNC1CCc2cc(C#N)sc2C1 (single isomer, unassigned) [Compound 36, hydrochloride] ?
Completion: +++ (≥49%)
